Target: RSV L+P-JNJ-8003 complex (Human respiratory syncytial virus A, UniProt P28887)
Construct: a biophysical SPR assay was established using full-length RSV L+P complex; Twin-Strep-tag (N)
Sequence (P28887 whole entry): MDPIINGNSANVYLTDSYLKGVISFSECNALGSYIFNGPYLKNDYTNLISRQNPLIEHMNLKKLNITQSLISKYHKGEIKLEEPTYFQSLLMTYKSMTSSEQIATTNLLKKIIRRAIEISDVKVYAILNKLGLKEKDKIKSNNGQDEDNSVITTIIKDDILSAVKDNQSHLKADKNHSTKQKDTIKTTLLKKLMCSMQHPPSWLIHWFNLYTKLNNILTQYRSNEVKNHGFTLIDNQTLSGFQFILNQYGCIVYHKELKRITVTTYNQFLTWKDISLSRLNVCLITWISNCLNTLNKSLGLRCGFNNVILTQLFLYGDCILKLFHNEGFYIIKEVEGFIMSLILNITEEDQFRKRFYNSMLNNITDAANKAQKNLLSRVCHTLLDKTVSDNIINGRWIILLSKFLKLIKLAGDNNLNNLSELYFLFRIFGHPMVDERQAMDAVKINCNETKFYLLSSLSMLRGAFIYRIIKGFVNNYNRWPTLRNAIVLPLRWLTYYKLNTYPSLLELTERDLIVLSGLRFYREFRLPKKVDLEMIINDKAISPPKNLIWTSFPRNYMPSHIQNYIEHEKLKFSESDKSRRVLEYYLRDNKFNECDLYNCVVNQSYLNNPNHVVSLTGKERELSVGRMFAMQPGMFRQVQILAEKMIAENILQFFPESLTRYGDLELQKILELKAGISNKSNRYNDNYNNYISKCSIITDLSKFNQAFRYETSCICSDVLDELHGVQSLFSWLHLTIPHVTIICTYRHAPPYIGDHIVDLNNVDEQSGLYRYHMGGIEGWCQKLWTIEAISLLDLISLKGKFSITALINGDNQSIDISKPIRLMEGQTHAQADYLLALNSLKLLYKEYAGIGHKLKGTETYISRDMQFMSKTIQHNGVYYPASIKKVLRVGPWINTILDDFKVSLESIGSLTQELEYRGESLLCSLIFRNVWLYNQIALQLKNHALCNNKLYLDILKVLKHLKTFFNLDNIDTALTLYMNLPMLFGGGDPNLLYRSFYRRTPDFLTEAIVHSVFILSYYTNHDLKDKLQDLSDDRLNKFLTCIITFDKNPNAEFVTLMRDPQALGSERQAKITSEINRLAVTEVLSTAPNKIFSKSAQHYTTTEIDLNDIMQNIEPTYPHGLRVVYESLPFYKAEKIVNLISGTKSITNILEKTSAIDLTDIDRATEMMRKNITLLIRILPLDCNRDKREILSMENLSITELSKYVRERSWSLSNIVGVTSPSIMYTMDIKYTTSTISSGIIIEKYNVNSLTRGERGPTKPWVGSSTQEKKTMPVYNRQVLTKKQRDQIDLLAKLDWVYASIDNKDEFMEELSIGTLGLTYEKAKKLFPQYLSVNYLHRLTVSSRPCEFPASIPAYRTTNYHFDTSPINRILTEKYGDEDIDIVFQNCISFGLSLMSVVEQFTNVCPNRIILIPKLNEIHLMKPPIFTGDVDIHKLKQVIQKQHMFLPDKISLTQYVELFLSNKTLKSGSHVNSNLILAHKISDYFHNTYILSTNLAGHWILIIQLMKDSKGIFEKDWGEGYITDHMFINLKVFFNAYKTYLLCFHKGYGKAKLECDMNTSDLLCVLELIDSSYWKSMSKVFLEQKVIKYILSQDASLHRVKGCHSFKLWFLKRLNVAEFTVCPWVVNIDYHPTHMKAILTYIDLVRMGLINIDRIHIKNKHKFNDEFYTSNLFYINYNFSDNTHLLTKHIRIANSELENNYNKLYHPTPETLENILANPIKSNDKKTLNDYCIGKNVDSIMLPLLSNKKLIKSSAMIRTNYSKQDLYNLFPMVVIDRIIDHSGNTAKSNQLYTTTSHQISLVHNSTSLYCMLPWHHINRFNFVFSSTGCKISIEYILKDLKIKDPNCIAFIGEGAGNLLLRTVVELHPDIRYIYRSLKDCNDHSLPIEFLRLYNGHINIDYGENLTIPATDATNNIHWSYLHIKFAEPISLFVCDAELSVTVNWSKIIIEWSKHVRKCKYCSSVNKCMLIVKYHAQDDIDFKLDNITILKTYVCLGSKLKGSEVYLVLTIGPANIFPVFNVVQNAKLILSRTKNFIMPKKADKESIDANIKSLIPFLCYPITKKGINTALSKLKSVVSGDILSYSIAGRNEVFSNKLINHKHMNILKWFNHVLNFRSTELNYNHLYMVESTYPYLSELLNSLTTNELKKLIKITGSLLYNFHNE
Sequence (P03421 whole entry, further chain): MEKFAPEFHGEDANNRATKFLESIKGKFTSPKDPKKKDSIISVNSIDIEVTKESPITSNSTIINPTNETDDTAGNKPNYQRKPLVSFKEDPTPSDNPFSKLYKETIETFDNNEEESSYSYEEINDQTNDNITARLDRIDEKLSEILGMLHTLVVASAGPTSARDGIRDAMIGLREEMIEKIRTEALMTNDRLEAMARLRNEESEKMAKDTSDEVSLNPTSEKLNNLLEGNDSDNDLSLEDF
Assay: SPR A-B-A competition with capping domain binder JNJ-8003
Conditions: 60 nM JNJ-8003 competitor; read-out: SPR KD in the presence of JNJ-8003
quantity_name: Kd (µM)
Give the value in µM but do not write µM after it.

Task item: Identify measured Kd obtained with RSV L+P-JNJ-8003 complex (Human respiratory syncytial virus A, UniProt P28887) for CN1C(=O)C2(CCN(c3cnc(C#N)c(Cl)c3)CC2)c2cc(Br)ccc21 [Compound 22] .
Reply: 0.53

====

System: rgRSV224 virus (RSV A2) in HeLa cells
Experiment: HeLa cell rgRSV224 eGFP reporter viral proliferation assay
Assay type: cell-based
Settings: RSV eGFP phenotypic assay in HeLa cells, MOI 1, 72 h, n ≥ 2; read-out: Cellular EC50
quantity_name: EC50 (µM)
Give the value in µM but do not write µM after it.

Task item: Identify measured EC50 obtained with rgRSV224 virus (RSV A2) in HeLa cells for CN1C(=O)C2(CCN(c3cnc(C#N)c(Cl)c3)CC2)c2cc(Br)ccc21 [Compound 22] .
Reply: 2.38

====

The entries below are paired with their reported pEC50.
Test system: rgRSV224 virus (RSV A2) in HeLa cells
Assay: HeLa cell rgRSV224 eGFP reporter viral proliferation assay
Type: cell-based
Details: human respiratory syncytial virus, HeLa, 72 h, RSV eGFP phenotypic assay in HeLa cells, MOI 1, 72 h, n ≥ 2; read-out: Cellular EC50
As a rule, pEC50 stands for the negative log10 of the concentration, concentration in M.

Below, each entry is followed by its recorded pEC50 result.
compound: COc1ccc2c(c1)C1(CCN(c3cnc(C#N)c(Cl)c3)CC1)C(=O)N2 [Compound 18]
pEC50: 4.80
--
compound: N#Cc1ncc(N2CCC3(CC2)C(=O)Nc2ccccc23)cc1Cl [Compound 20]
pEC50: 5.08
--
compound: N#Cc1ncc(N2CCC3(CC2)C(=O)Nc2ccc(F)cc23)cc1Cl [Compound 19]
pEC50: 5.18
--
compound: N#Cc1ncc(N2CCC3(CC2)C(=O)Nc2ccc(Cl)cc23)cc1Cl [Compound 16]
pEC50: 5.09
--
compound: Cc1ccc2c(c1)C1(CCN(c3cnc(C#N)c(Cl)c3)CC1)C(=O)N2 [Compound 17]
pEC50: 4.96

Task item: // fetch pEC50 given entry CN1C(=O)C2(CCN(c3ccc(C#N)c(Cl)n3)CC2)c2cc(F)ccc21 [Compound 29]
Reply: 5.10

Task item: // fetch pEC50 given entry Cc1cc(N2CCC3(CC2)C(=O)N(C)c2ccc(F)cc23)cc(F)c1C#N [Compound 32]
Reply: 4.86

====

Tested on: HeLa cells
Conditions: HeLa cytotoxicity, line RSV-B/Wash/18537
quantity_name: CC50

Task item: Identify measured CC50 obtained with HeLa cells for `CN1C(=O)C2(CCN(c3cnc(C#N)c(Cl)c3)CC2)c2cc(Br)ccc21` .
Reply: > 50 µM

====

Biological target: RSV L+P (Human respiratory syncytial virus A)
Construct: Biochemical activity of 1 and 22 against full-length RSV L+P; Twin-Strep-tag (N); made in house; host or cells: Sf9 insect cells (baculovirus, pFastBac Dual)
Assay: Pyrophosphate luminescence detection assay, full-length RSV L+P
Assay type: biochemical
Settings: pyrophosphate luminescence detection assay, full-length RSV L+P, n ≥ 2; read-out: Biochemical IC50
The entries below are paired with their reported IC50.
Give the value in nM but do not write nM after it.

smi: Cc1ccc2c(c1)C1(CCN(c3cnc(C#N)c(Cl)c3)CC1)C(=O)N2
IC50 (nM): 1750

Task item: // fetch IC50 given entry `COc1ccc2c(c1)C1(CCN(c3cnc(C#N)c(Cl)c3)CC1)C(=O)N2`
Reply: 3100

Task item: // fetch IC50 given entry `N#Cc1ncc(N2CCC3(CC2)C(=O)N(c2cccnc2)c2ccc(F)cc23)cc1Cl`
Reply: 800

Task item: // fetch IC50 given entry `N#Cc1ncc(N2CCC3(CC2)C(=O)Nc2ccccc23)cc1Cl`
Reply: 6630

Task item: // fetch IC50 given entry `N#Cc1ncc(N2CCC3(CC2)C(=O)N(CCF)c2ccc(F)cc23)cc1Cl`
Reply: 2860

Task item: // fetch IC50 given entry `N#Cc1ncc(N2CCC3(CC2)C(=O)Nc2ccc(Cl)cc23)cc1Cl`
Reply: 1030

Task item: // fetch IC50 given entry `Cc1cc(N2CCC3(CC2)C(=O)N(C)c2ccc(F)cc23)cc(F)c1C#N`
Reply: 1900

Task item: // fetch IC50 given entry `COc1cc(N2CCC3(CC2)C(=O)N(C)c2ccc(F)cc23)cnc1C#N`
Reply: 2980
